For each of the binders below, state its Kd.
- targetEntity: T1, recombinant mouse CTLA-4 protein (mouse, UniProt P09793 36-161)
- T1 construct: Recombinant protein used as analyte in SPR/Octet; also called murine CTLA-4; mCTLA-4
- assay: SPR (Pioneer FE) or Octet (Red96e), 25 C; IgG captured by anti-human Fc or AHC sensor, mCTLA-4 as analyte
Entry rule: numbers only, all in nM.

// query Need Kd of IgG antibody 78-8D22 HC / 78-8 LC (antibody, V domains shown) VH: EVQLVESGGGLVQPGGSLRLSCAASGFTFSSYVMHWVRQAPGKGLEWVSAISWSGSGTYYADSVKGRFTISRDNSKNTLYLQMNSLRAEDTAVYYCARGRLFGLARYGEAFDVWGQGTLVTVSS VL: DIQMTQSPSSLSASVGDRVTITCQASKDISNYLNWYQQKPGKAPKLLIYDASNLETGVPSRFSGSGSGTDFTFTISSLQPEDIATYYCQQFNSFPLTFGQGTKVEIKR , thanks.
// result 0.39

// query Need Kd of IgG antibody 78-8D4 HC / 78-8 LC (antibody, V domains shown) VH: EVQLVESGGGLVQPGGSLRLSCAASGFTFSSYVMHWVRQAPGKGLEWVSAITWSGGGTYYADSVKGRFTISRDNSKNTLYLQMNSLRAEDTAVYYCARGRLFGLVRYGEAFDVWGQGTLVTVSS VL: DIQMTQSPSSLSASVGDRVTITCQASKDISNYLNWYQQKPGKAPKLLIYDASNLETGVPSRFSGSGSGTDFTFTISSLQPEDIATYYCQQFNSFPLTFGQGTKVEIKR , thanks.
// result 0.27

// query Need Kd of IgG antibody 78-24D22V HC / 78-24 LC (antibody, V domains shown) VH: EVQLVESGGGLVQPGGSLRLSCAASGFTFPSYSMHWVRQAPGKGLEWVSGISGSGWSTSYADSVKGRFTISRDNSKNTLYLQMNSLRAEDTAVYYCARDLMAFNLVRAGGFDVWGQGTLVTVSS VL: DIQMTQSPSSLSASVGDRVTITCQASQDISNYLNWYQQKPGKAPKLLIYDASNLETGVPSRFSGSGSGTDFTFTISSLQPEDIATYYCQQGDAWPWTFGQGTKVEIKR , thanks.
// result 0.19
